Biological target: BTK (Homo sapiens, UniProt Q06187)
Sequence (Q06187 402-655 limits assumed): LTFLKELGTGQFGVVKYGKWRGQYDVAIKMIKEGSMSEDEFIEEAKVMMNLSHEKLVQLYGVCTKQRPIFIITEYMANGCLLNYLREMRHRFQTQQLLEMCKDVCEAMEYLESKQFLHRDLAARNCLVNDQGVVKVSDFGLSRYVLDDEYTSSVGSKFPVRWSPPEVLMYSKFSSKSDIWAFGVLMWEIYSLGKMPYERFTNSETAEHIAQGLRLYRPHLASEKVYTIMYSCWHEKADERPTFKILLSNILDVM
Test: biochemical
Settings: read-out: BTK inhibition (%), 0.75 uM BTK, […] probe 3l, 15 min preincubation
Measured inhibition at 10 µM, listed per entry for reference.
MEASURED ATTRIBUTE: inhibition at 10 µM

INSERT INTO assay_data (compound, system_name, measured_attribute, observed_measurement) VALUES
  ('CCCCCC1C(=O)CCC1CC(=O)OCCC (stereo not drawn)', 'BTK (Homo sapiens, UniProt Q06187)', 'inhibition at 10 µM', '-0.8%'),
  ('O=c1ccc2cc(O)ccc2o1', 'BTK (Homo sapiens, UniProt Q06187)', 'inhibition at 10 µM', '-10%'),
  ('COc1cc2nc(N3CCN(C(=O)C4COc5ccccc5O4)CC3)nc(N)c2cc1OC (stereo not drawn)', 'BTK (Homo sapiens, UniProt Q06187)', 'inhibition at 10 µM', '-11.7%'),
  ('O=c1[nH]c(=O)c2ncn([C@@H]3O[C@H](CO)[C@@H](O)[C@H]3O)c2[nH]1', 'BTK (Homo sapiens, UniProt Q06187)', 'inhibition at 10 µM', '13.1%'),
  ('CCCCOc1ccc(C(=O)CCN2CCCCC2)cc1', 'BTK (Homo sapiens, UniProt Q06187)', 'inhibition at 10 µM', '-10.1%'),
  ('CC(C)c1c(C(=O)Nc2ccccc2)c(-c2ccccc2)c(-c2ccc(F)cc2)n1CC[C@@H](O)C[C@@H](O)CC(=O)O', 'BTK (Homo sapiens, UniProt Q06187)', 'inhibition at 10 µM', '10.1%'),
  ('O=C(/C=C/c1cccc(S(=O)(=O)Nc2ccccc2)c1)NO', 'BTK (Homo sapiens, UniProt Q06187)', 'inhibition at 10 µM', '9%'),
  ('C[N+](C)(C)NCCC(=O)[O-]', 'BTK (Homo sapiens, UniProt Q06187)', 'inhibition at 10 µM', '-8.5%'),
  ('CC1=CC(=O)CC(C)(C)C1=O', 'BTK (Homo sapiens, UniProt Q06187)', 'inhibition at 10 µM', '7.8%');

###

Biological target: BTK (Homo sapiens, UniProt Q06187)
Assay: biochemical
Conditions: read-out: BTK inhibition (%), 0.75 uM BTK, […] probe 3l, 15 min preincubation
MEASURED ATTRIBUTE: inhibition at 10 µM (%)

INSERT INTO results (molecule_smiles, measured_attribute, quantity_unit, observed_measurement) VALUES
  ('COc1ccc(-n2nc(C(N)=O)c3c2C(=O)N(c2ccc(N4CCCCC4=O)cc2)CC3)cc1', 'inhibition at 10 µM', '%', -7.8),
  ('CCc1c(Cl)c(O)c(Cl)c(O)c1C(=O)O[C@H]1[C@H](O)[C@H](OC)[C@H](OC/C2=C\C=C\C[C@H](O)/C(C)=C/[C@H](CC)[C@@H](O[C@@H]3OC(C)(C)[C@@H](OC(=O)C(C)C)[C@H](O)[C@@H]3O)/C(C)=C/C(C)=C/C[C@@H]([C@@H](C)O)OC2=O)O[C@@H]1C', 'inhibition at 10 µM', '%', 45.9),
  ('O=C(/C=C/c1ccc(O)c2c1[C@H](C(=O)O[C@H](Cc1ccc(O)c(O)c1)C(=O)O)[C@@H](c1ccc(O)c(O)c1)O2)O[C@H](Cc1ccc(O)c(O)c1)C(=O)O', 'inhibition at 10 µM', '%', -34.2);

Where do these numbers come from? They come from paper PMC8041284.
